Tested System: human DGAT2 (Homo sapiens (Human))
Sequence (Q96PD7 whole entry): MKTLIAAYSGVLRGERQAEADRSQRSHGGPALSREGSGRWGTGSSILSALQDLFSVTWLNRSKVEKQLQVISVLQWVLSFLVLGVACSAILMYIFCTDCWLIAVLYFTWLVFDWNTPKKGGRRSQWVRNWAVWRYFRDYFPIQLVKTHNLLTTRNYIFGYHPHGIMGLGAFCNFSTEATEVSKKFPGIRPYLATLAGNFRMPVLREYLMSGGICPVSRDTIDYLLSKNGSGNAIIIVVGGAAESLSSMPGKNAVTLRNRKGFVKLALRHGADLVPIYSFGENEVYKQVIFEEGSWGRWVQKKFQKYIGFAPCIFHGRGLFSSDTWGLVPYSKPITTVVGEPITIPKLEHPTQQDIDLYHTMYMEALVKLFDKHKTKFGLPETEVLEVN
Experiment Summary: DGAT2 Enzymatic Activity Assay
Particulars: read-out: Human DGAT2 IC50; hDGAT2 membrane prep from Sf-9 cells; 13C18-triolein product by LC/MS/MS
Measured Attribute: log10 of IC50 (log10 of the value in µM)
Note the log scale: values are log10 of IC50 expressed in µM.

Input: Any idea what log10 of IC50 was measured for `Cn1c(C(=O)NC2(C)CCS(=O)(=O)CC2)nc2cc(F)c(Oc3ncc(F)cc3OCC(F)(F)F)nc21` ?
Output: -2.66

Input: Any idea what log10 of IC50 was measured for `Cc1cc2nc(C(=O)NC3(C)CCS(=O)(=O)CC3)n(C)c2nc1Oc1ncc(F)cc1OCC(C)(F)F` ?
Output: -1.10

Input: Any idea what log10 of IC50 was measured for `O=C(N[C@H]1CCOC1)c1nc2ccc(Oc3ncc(Cl)cc3OCC(F)(F)F)cc2o1` ?
Output: 0.26

Input: Any idea what log10 of IC50 was measured for `Cn1c(C(=O)NC2(C)CCS(=O)(=O)CC2)nc2cc(F)c(Oc3ncc(F)cc3OCC(C)(F)F)nc21` ?
Output: -1.47

Input: Any idea what log10 of IC50 was measured for `Cn1c(C(=O)NC2(C)CCS(=O)(=O)CC2)nc2ccc(Oc3ncc(F)cc3OCC(C)(F)F)nc21` ?
Output: -0.63

Data origin, for the record: patent US20240254114A1
